assay.metric: melting point (°C)

- Cn1nccc(NC(=O)N2CCC(Oc3cc(C(F)(F)F)ccc3Cl)CC2)c1=O: 148
- Cn1nccc(NC(=O)N2CCC(Oc3cc(F)cc(C(F)(F)F)c3)CC2)c1=O: 115
- Cn1nccc(NC(=O)N2CCC(Oc3cc(Cl)ccc3Cl)CC2)c1=O: 125

---

pIC50: −log10 of the molar value.
Observed pIC50, system SCD-1 (Homo sapiens, UniProt O00767).

Record excerpt, results attached:
* Cn1nccc(NCC(=O)N2CCC(CNc3ccccc3C(F)(F)F)CC2)c1=O | ~6.52
* Cn1nccc(NC(=O)N2CCC(Oc3ccc(Cl)c(Cl)c3)CC2)c1=O | 6.00
* O=C(CNc1ccn[nH]c1=O)N1CCC(Oc2cc(F)c(F)cc2Br)CC1 | 7.00 to 8.00
* Cn1nccc(/C=C/C(=O)N2CCC(Oc3cc(C(F)(F)F)ccc3Cl)CC2)c1=O | 6.00 to 6.52
* Cc1ccc(C)c(OC2CCN(C(=O)Nc3ccnn(C)c3=O)CC2)c1 | 6.00 to 7.00

INPUT: Provide the reported pIC50 (system: SCD-1 (Homo sapiens, UniProt O00767)) for Cn1nccc(NC(=O)N2CCC(Oc3ccccc3Cl)CC2)c1=O
OUTPUT: 6.00 to 6.52

INPUT: Provide the reported pIC50 (system: SCD-1 (Homo sapiens, UniProt O00767)) for CC(C)CCCn1nccc(NCC(=O)N2CCC(Oc3cc(C(F)(F)F)ccc3Cl)CC2)c1=O
OUTPUT: 6.00 to 6.52

---

tested.system: SCD-1 (Homo sapiens, UniProt O00767)
Sequence (O00767 1-359): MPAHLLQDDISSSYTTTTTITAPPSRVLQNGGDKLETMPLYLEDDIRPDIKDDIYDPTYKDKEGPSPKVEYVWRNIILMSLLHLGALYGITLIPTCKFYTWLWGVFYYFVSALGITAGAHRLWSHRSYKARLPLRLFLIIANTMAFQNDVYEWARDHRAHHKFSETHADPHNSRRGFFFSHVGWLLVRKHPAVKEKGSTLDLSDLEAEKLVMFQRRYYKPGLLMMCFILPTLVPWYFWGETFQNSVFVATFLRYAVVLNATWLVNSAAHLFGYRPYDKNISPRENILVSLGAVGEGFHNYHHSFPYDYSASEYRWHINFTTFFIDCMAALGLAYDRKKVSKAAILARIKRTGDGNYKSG
Overview of recorded IC50 for various compounds

• Cn1nccc(NCC(=O)N2CC(Oc3ccccc3C(F)(F)F)C2)c1=O = 3000 to 10000 nM
• Cn1nccc(NC(=O)N2CCC(Oc3cc(Cl)c(Cl)cc3Cl)CC2)c1=O = 100 to 1000 nM
• Cn1nccc(NC(=O)N2CCC(Oc3ccc(Cl)cc3Cl)CC2)c1=O = 100 to 1000 nM
• Cn1nccc(NCC(=O)N2CCC(Oc3cc([N+](=O)[O-])ccc3Cl)CC2)c1=O = 100 to 1000 nM
• Cn1nc(NC(=O)N2CCC(Oc3cc(C(F)(F)F)ccc3Cl)CC2)ccc1=O = 10 to 100 nM
• Cn1ncc(NC(=O)N2CCC(Oc3cc(C(F)(F)F)ccc3Cl)CC2)cc1=O = 10 to 100 nM
• O=C(CNc1ccn[nH]c1=O)N1CCC(Oc2cccc(C(F)(F)F)c2)CC1 = 100 to 1000 nM

INPUT: Provide the reported IC50 (system: SCD-1 (Homo sapiens, UniProt O00767)) for Cn1ncc(OCC(=O)N2CCC(Oc3cc(Cl)ccc3Cl)CC2)cc1=O
OUTPUT: 1000 to 10000 nM

---

assay.metric: melting point (°C)

- Cn1ncc(OCC(=O)N2CCC(Oc3cc(Cl)ccc3Cl)CC2)cc1=O: 163
- O=C(Nc1ccn[nH]c1=O)N1CCC(Oc2cc(C(F)(F)F)ccc2Cl)CC1: 158
- Cn1nccc(NCC(=O)N2CCC(Oc3cc(Br)ccc3Cl)CC2)c1=O: 160
- Cc1ccc(F)cc1OC1CCN(C(=O)CNc2ccnn(C)c2=O)CC1: 176
- Cn1nccc(NCC(=O)N2CCC(Oc3cc(F)c(F)cc3Br)CC2)c1=O: 137
- Cn1nccc(NCC(=O)N2CCC(Oc3cc(F)ccc3Cl)CC2)c1=O: 159
- CN(Cc1ccc(Cl)c(Cl)c1)C1CCN(C(=O)CNc2ccnn(C)c2=O)CC1: 155

---

assay.metric: melting point (°C)

- Cc1ccc(F)cc1OC1CCN(C(=O)Nc2ccnn(C)c2=O)CC1: 142
- Cn1nc(NC(=O)N2CCC(Oc3cc(C(F)(F)F)ccc3Cl)CC2)ccc1=O: 155
- Cn1nccc(NCC(=O)N2CCC(Oc3ccccc3Cl)CC2)c1=O: 142
- Cn1nccc(NC(=O)C(=O)N2CCC(Oc3cc(C(F)(F)F)ccc3Cl)CC2)c1=O: 205
- Cn1nccc(/C=C/C(=O)N2CCC(Oc3cc(C(F)(F)F)ccc3Cl)CC2)c1=O: 154
- O=C(CNc1ccn[nH]c1=O)N1CCC(Oc2cc(C(F)(F)F)ccc2Cl)CC1: 222
- Cn1ncc(OCC(=O)N2CCC(Oc3cc(C(F)(F)F)ccc3Cl)CC2)cc1=O: 176
- Cn1nccc(NC(=O)N2CCC(Oc3ccc(F)c(C(F)(F)F)c3)CC2)c1=O: 127
- Cn1nccc(NCC(=O)N2CCC(Oc3cc(F)ccc3F)CC2)c1=O: 160
- Cn1nccc(NC(=O)N2CCC(Oc3cc(Cl)c(Cl)cc3Cl)CC2)c1=O: 154
- Cn1nccc(NCC(=O)N2CCC(Oc3cc([N+](=O)[O-])ccc3Cl)CC2)c1=O: 162
